Parameter: GI50. Scope: all listed entries.
System: HOP-62
Test: NCI tumour cell line growth inhibition, 48 h
Calls of active or inactive are those of the source. Cut-off read from the data, not from the text of the source: active = GI50 up to about 1.1 µM and inactive = higher.

[
  {
    "molecule": "O=C(O)c1cc(/N=N/c2ccc([As](=O)(O)O)cc2)ccc1O",
    "GI50": "> 100 µM (inactive)"
  },
  {
    "molecule": "COc1ccc(N2C(=O)CC(c3c[nH]c4ccccc34)C2=O)cc1 (stereo unspecified)",
    "GI50": "> 100 µM (inactive)"
  },
  {
    "molecule": "O=C1C(CN2CCCC2)CCCC1CN1CCCC1 (stereo unspecified)",
    "GI50": "> 49.8 µM (inactive)"
  },
  {
    "molecule": "O=C1CN(c2cccc(Cl)c2)C(=O)CN1NCNN1CC(=O)N(c2cccc(Cl)c2)CC1=O",
    "GI50": "> 100 µM (inactive)"
  },
  {
    "molecule": "O=C(O)CC1NC(/C(=C/c2ccccc2O)NC(=O)c2ccccc2)OC1=O (stereo unspecified)",
    "GI50": "14 µM (inactive)"
  },
  {
    "molecule": "CC(CO)(CO)/N=C/c1cc(I)cc(I)c1O",
    "GI50": "11.2 µM (inactive)"
  },
  {
    "molecule": "O=C(Sc1c(-c2ccccc2)c(=O)n(-c2ccccc2)c(=S)n1-c1ccccc1)c1cccs1",
    "GI50": "> 100 µM (inactive)"
  },
  {
    "molecule": "CC1=C(C(=O)CC(=O)C(=O)Nc2ccc(Cl)cc2C)Sc2ccccc2N1",
    "GI50": "> 100 µM (inactive)"
  },
  {
    "molecule": "COc1ccc2c(c1)[n+]([O-])c(C(=O)C/C(=N/NC(=O)c1ccccc1O)C(=O)Nc1ccc(Cl)c(C(F)(F)F)c1)c(C)[n+]2[O-]",
    "GI50": "37.8 µM (inactive)"
  },
  {
    "molecule": "CCCCCOc1ccc(/C=N\\c2ccc(CCc3ccc(/N=C/c4ccc(OCCCCC)cc4)cc3)cc2)cc1",
    "GI50": "> 100 µM (inactive)"
  },
  {
    "molecule": "CCN(CC)CC1CCCCN1CC(=O)N1c2cc(Cl)ccc2NC(=O)CC1C (stereo unspecified)",
    "GI50": "> 100 µM (inactive)"
  }
]

Every entry's value here was drawn from ChEMBL document CHEMBL1201862.
